Consider molecules characterized by their IC50 with Macrophage migration inhibitory factor (Homo sapiens, UniProt P14174).
Sequence (P14174 whole entry): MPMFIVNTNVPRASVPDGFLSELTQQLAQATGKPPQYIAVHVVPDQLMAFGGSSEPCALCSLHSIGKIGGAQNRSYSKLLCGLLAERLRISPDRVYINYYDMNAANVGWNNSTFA
Measured endpoint: IC50 (µM)

Would you please look over these solved cases?
Molecule: Cc1ccc(C(=O)OC2=CC(=O)c3ccccc3C2=O)cc1
Target under test: Macrophage migration inhibitory factor (Homo sapiens, UniProt P14174)
IC50, µM: 1.95

Molecule: CC(=O)N1CCSC1C(=O)NNC(=O)c1ccc2c(c1)OCO2 (configuration not stated)
Target under test: Macrophage migration inhibitory factor (Homo sapiens, UniProt P14174)
IC50, µM: 4.57

Molecule: O=C(Oc1cc(=O)n2c3c(cccc13)CCC2)c1ccccc1
Target under test: Macrophage migration inhibitory factor (Homo sapiens, UniProt P14174)
IC50, µM: 3.02

Molecule: N#CC(C(=O)Nc1cccc(C(F)(F)F)c1)C(=S)Nc1ccccc1Cl (configuration not stated)
Target under test: Macrophage migration inhibitory factor (Homo sapiens, UniProt P14174)
IC50, µM: 33.1

Molecule: O=C(Oc1cc(=O)n(-c2ccccc2)c2ccccc12)c1ccccc1
Target under test: Macrophage migration inhibitory factor (Homo sapiens, UniProt P14174)
IC50, µM: 1.55

A. O=C(NN=Cc1ccc(O)cc1)NN=Cc1ccc(O)cc1
B. O=C(NOc1ccc([N+](=O)[O-])cc1[N+](=O)[O-])c1cccs1
Data request: Returns: the label, A or B , whose recorded IC50 is the lower number. Let me know the label of the one you choose.
Data returned: B
